Taken from ChEMBL document CHEMBL1149262.

System: Mus musculus
EXPERIMENT_SUMMARY: Activity in CD1 mouse assessed as convulsions at 100 mg/kg, ip after 4 hrs
Assay type: functional, organism-based
Parameters: dose 100 mg/kg
Activity calls are given as the source filed them. The rule behind the calls is not given here.
MEASUREMENT_TYPE: Activity

MOLECULE: COC(=O)[C@H]1C2CCC(C[C@@H]1c1ccc(C)cc1)N2C (stereo partly specified)
RESULT: Active
--
MOLECULE: COC(=O)[C@H]1[C@@H](c2ccc(F)cc2)C[C@H]2CC[C@H]1N2C
RESULT: Active
--
MOLECULE: COC(=O)[C@H]1[C@@H](OC(=O)c2ccccc2)C[C@@H]2CC[C@H]1N2C
RESULT: Active
--
MOLECULE: COC(=O)[C@H]1C2CCC(C[C@@H]1c1ccc(Br)cc1)N2C (stereo partly specified)
RESULT: Active
--
MOLECULE: COC(=O)[C@@H]1C2CC[C@H](C[C@@H]1c1ccccc1)N2C
RESULT: Active
--
MOLECULE: COC(=O)[C@H]1C2CCC(C[C@@H]1c1ccccc1)N2C (stereo partly specified)
RESULT: Active

For the next question, use this molecule.
*Q* Kindly indicate its recorded Activity. Item: COC(=O)[C@H]1[C@H]2CCC(C[C@H]1c1ccc(C)cc1)N2C
*A* Active

###

Tested on: Mus musculus
EXPERIMENT_SUMMARY: Activity in CD1 mouse assessed as hyperactivity at 1 mg/kg, ip after 4 hrs
Type: functional, organism-based
Parameters: dose 1 mg/kg
Activity calls are given as the source filed them. No cut-off for these calls is given here.
MEASUREMENT_TYPE: Activity

MOLECULE: COC(=O)C1C2CC[C@H](C[C@@H]1c1ccc(Cl)cc1)N2C (some centres undefined)
RESULT: Active

MOLECULE: COC(=O)[C@@H]1C2CC[C@H](C[C@@H]1c1ccc(I)cc1)N2C
RESULT: Active

MOLECULE: COC(=O)[C@@H]1C2CC[C@H](C[C@@H]1c1ccccc1)N2C
RESULT: Active

MOLECULE: COC(=O)[C@@H]1C2CCC(C[C@@H]1c1ccc(Br)cc1)N2C (some centres undefined)
RESULT: Active

###

Recorded Activity for the following compounds
Tested on: Mus musculus
EXPERIMENT_SUMMARY: Locomotor activity in CD1 mouse assessed as stimulation at 10 mg/kg, ip after 3 hrs relative to control
Format: functional
APPLIED_CONDITIONS: route intraperitoneal
The figure you give is taken to be in %; do not add the unit.

COMPOUND: COC(=O)[C@@H]1C2CCC(C[C@H]1c1ccccc1)N2C (stereo partly drawn)
NUMERIC_RESULT: -13

COMPOUND: COC(=O)[C@H]1[C@@H](OC(=O)c2ccccc2)C[C@@H]2CC[C@H]1N2C
NUMERIC_RESULT: 10

COMPOUND: COC(=O)[C@H]1C2CCC(C[C@@H]1c1ccc(Cl)cc1)N2C (stereo partly drawn)
NUMERIC_RESULT: 1275

Let's switch to this compound now.
*Q* Item COC(=O)[C@@H]1C2CCC(C[C@H]1c1ccc(Br)cc1)N2C (stereo partly drawn) : provide Activity
*A* 686

###

Each entry below carries its reported ED50.
System: Mus musculus
EXPERIMENT_SUMMARY: Locomotor activity in ip dosed CD1 mouse in peak hour
Format: functional
Respond with the bare value in mg/kg.

Reference set (5 entries):
COMPOUND: COC(=O)[C@@H]1C2CCC(C[C@H]1c1ccc(I)cc1)N2C (stereo partly specified)
ED50 / mg/kg: 7.7

COMPOUND: COC(=O)[C@H]1C2CCC(C[C@@H]1c1ccc(Br)cc1)N2C (stereo partly specified)
ED50 / mg/kg: 10

COMPOUND: COC(=O)[C@H]1C2CCC(C[C@@H]1c1ccc(F)cc1)N2C (stereo partly specified)
ED50 / mg/kg: 2.4

COMPOUND: COC(=O)[C@@H]1C2CCC(C[C@H]1c1ccc(Br)cc1)N2C (stereo partly specified)
ED50 / mg/kg: 6.6

COMPOUND: COC(=O)[C@H]1C2CCC(C[C@@H]1c1ccc(Cl)cc1)N2C (stereo partly specified)
ED50 / mg/kg: 4.3

The record that follows has no ED50 shown yet.
*Q* Output measured ED50 for this item: COC(=O)[C@@H]1C2CCC(C[C@H]1c1ccc(C)cc1)N2C (stereo partly specified)
*A* 14.7
